tested on: SW-620 colon; assay: NCI-60 one-dose screen, 48 h; settings: 10 µM unless noted
Compounds without any hit were thinned out: in the full panel of roughly 83,000, 20% have a hit. Activity calls are given as the source filed them. Rule for the calls: active = growth percent below 10; inactive = the rest.
Hi! Could you answer with just one of these? active, inactive

[[record]]
compound_structure_string = "C/C=C1/CN(CCCCC)CC[C@H]1C(=O)c1cc2ccccc2[nH]1"
label_class = "inactive"


# evaluate next
What is the recorded call for this compound in the test? S=c1ccnc[nH]1
inactive

* * *

# growth listing for each entry below
Test system: MDA-MB-231 breast
Assay: NCI-60 one-dose screen, 48 h (100 = growth as untreated, 0 = no growth, -100 = all killed)
Details: 10 µM unless noted
Procedure: Cells are grown in 96 well plates and exposed to the test compound for 48 hours. Compounds are tested at a single concentration, which is 10^-5 M for most compounds. The reported endpoint is percent growth (GI% or GIPRCNT), where numbers from 0 - 100% represent growth inhibition, and numbers from -100% - 0 represent cell death. For example, a value of 40 represents 60% growth inhibition. A value of 0 means no net growth occurred over the course of the experiment. […]
About 83,000 compounds went through this panel and 20% of them were active in at least one assay; those are over-represented in the sample as a whole. Active and inactive are the calls of the source. The calls were made as follows: active = growth percent below 10; inactive = the rest.

Example compounds with recorded growth:
[[record]]
compound_structure_string = "O=S(=O)(Nc1ccc2ccccc2c1)c1ccc(-c2cnc(C3CC3)o2)cc1"
val = "52.4% (inactive)"

[[record]]
compound_structure_string = "Cc1nc2sc(C(=O)Nc3cccc4ccccc34)c(N)c2cc1C(=O)c1ccccc1"
val = "15.2% (inactive)"


Moving on to the next compound.
# query: growth of entry COc1ccc(CNc2ccc3nc(NC(=O)CN4CCCCCC4)sc3c2)cc1
77.7% (inactive)

Ref: PubChem BioAssay (NCI)
